The measurements presented in this section are drawn from ChEMBL document CHEMBL4304757.

Molecular target: Alpha glucosidase (Homo sapiens, UniProt O43451+P10253+P14410+Q2M2H8)
Assay: Inhibition of alpha-glucosidase (unknown origin) using pNPG as substrate preincubated for 10 mins followed by substrate addition measured after 30 mins
Type: protein assay
# IC50 annotations

Recorded results for 5 compounds are shown here.
Fc1ccc2[nH]c(-c3ccccc3)c(-c3nc(-c4ccccc4)c(-c4ccccc4)n3-c3ccccc3)c2c1 | 8.3 to 98 µM
Fc1ccc2[nH]c(-c3ccccc3)c(-c3nc(-c4ccccc4)c(-c4ccccc4)n3-c3cccc(Cl)c3)c2c1 | 8.3 to 98 µM
FC(F)(F)c1ccc(-c2[nH]c3ccccc3c2-c2nc(-c3ccccc3)c(-c3ccccc3)n2-c2ccccc2)cc1 | 8.3 to 98 µM
O=C(N/N=C/c1cccc(O)c1O)c1cc2ccccc2[nH]1 | 2.3 to 226 µM
O=C(N/N=C/c1cc(O)c(O)c(O)c1)c1cc2ccccc2[nH]1 | 2.3 µM

Now for a further compound.
[ask] What value of measured IC50 is listed for COc1ccc(-n2c(-c3c(-c4ccc(Cl)cc4)[nH]c4ccc(Cl)cc34)nc(-c3ccccc3)c2-c2ccccc2)cc1 ?
[reply] 8.3 to 98 µM

###

Molecular target: Alpha glucosidase (Homo sapiens, UniProt O43451+P10253+P14410+Q2M2H8)
Assay: Inhibition of alpha-glucosidase (unknown origin) using p-nitrophenyl-alpha-d-glucopyranoside as substrate preincubated for 5 mins followed by substrate addition measured after 5 mins
Type: protein assay
Listed compounds paired with reported IC50

Here are 5 compounds together with their reported answers.
COc1ccc(O)c(/C=N/NC(=O)c2cc3ccccc3oc2=O)c1 | 1100 to 36000 nM
Nc1nnc(-c2ccc(O)cc2)s1 | 2300 nM
Nc1nnc(-c2ccc(Cl)cc2)s1 | 2300 to 38000 nM
Nc1nnc(-c2ccc(Cl)c(OCc3ccccc3)c2)s1 | 2300 to 38000 nM
Nc1nnc(-c2cccc([N+](=O)[O-])c2)s1 | 2300 to 38000 nM

// next entry
[ask] Look up IC50: O=[N+]([O-])c1cccc(-c2nnc(/N=C/c3ccc(Cl)cc3Cl)s2)c1
[reply] 2300 to 25000 nM

###

Molecular target: Alpha glucosidase (Homo sapiens, UniProt O43451+P10253+P14410+Q2M2H8)
Test: Inhibition of alpha-glucosidase (unknown origin) using p-nitrophenyl-alpha-d-glucopyranoside as substrate preincubated for 5 mins followed by substrate addition measured after 30 mins
Type: protein assay
assay-endpoint: IC50

Below: 7 compounds and their reported IC50.
Cc1cccc(C)c1N1C(=O)/C(=C/c2ccc(F)cc2)S/C1=N\NC(=O)c1cc2ccccc2oc1=O | 90 to 1600 nM
Cc1cs/c(=N\C(=O)c2ccccc2Cl)n1-c1cc(Cl)c(Cl)cc1Cl | 100 to 150 nM
Cc1ccc(C)c(N2C(=O)/C(=C/c3ccc(F)cc3)S/C2=N\NC(=O)c2cc3ccccc3oc2=O)c1 | > 100000 nM
Cc1cs/c(=N\C(=O)c2cccc3ccccc23)n1-c1cc(Cl)c(Cl)cc1Cl | 150 nM
COc1ccc(C(=O)/N=c2\scc(C)n2-c2cc(Cl)c(Cl)cc2Cl)cc1 | 100 to 150 nM
COc1ccccc1N1C(=O)/C(=C/c2ccc(F)cc2)S/C1=N\NC(=O)c1cc2ccccc2oc1=O | 90 nM
COc1cccc(N2C(=O)/C(=C/c3ccc(F)cc3)S/C2=N\NC(=O)c2cc3ccccc3oc2=O)c1 | 90 to 1600 nM

Proceeding to the next compound to report its IC50.
[ask] What value of IC50 has been recorded for this entry: Cc1cs/c(=N\C(=O)c2ccco2)n1-c1cc(Cl)c(Cl)cc1Cl
[reply] 100 to 150 nM
